Target: T1, CLAVATA2 (CLV2), wild type, tagged with mCherry (Arabidopsis thaliana, UniProt O80809 26-720)
T1 construct: CLAVATA2 (CLV2), Arabidopsis thaliana, LRR receptor-like protein, wild type, from cDNA; also called CLV2-mCherry; source: N. benthamiana, transiently expressed from an inducible vector, in living cells
T1 sequence (looked up): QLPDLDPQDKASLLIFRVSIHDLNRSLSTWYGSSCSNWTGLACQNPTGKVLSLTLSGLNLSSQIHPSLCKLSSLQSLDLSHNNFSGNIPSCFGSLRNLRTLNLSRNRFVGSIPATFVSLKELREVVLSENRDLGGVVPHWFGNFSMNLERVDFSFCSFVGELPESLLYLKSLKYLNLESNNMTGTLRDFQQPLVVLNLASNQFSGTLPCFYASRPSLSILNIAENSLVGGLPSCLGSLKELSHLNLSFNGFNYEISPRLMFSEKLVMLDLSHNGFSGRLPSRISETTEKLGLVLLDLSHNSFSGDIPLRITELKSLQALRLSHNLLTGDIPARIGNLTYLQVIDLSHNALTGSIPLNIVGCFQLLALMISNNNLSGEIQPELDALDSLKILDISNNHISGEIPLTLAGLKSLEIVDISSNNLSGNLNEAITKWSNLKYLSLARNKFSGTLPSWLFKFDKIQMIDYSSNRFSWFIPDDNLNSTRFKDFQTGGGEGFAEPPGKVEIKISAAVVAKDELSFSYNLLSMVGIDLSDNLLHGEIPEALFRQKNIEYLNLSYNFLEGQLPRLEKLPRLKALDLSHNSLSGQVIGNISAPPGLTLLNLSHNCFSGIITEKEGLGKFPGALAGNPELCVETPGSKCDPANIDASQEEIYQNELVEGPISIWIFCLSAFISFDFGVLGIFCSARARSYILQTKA
Assay: FRET or BRET; FRET-APB (acceptor photobleaching) in transiently transformed Nicotiana benthamiana cells; GFP donor, mCherry acceptor bleached in a region along the plasma membrane; apparent FRET efficiency as donor-dequenching in %
Conditions: partners not purified
Recorded Metric: D-d (%) (donor-dequenching, apparent FRET efficiency)
One number for each entry, in %.

CRN with S156D (putative phosphomimetic variant), tagged with GFP (natural protein, Arabidopsis thaliana, UniProt Q9LYU7 34-401, looked up, CRN, Arabidopsis thaliana, serine 156 replaced with aspartic acid; S156 is S131 on gene model AT5G13290.1 (the shorter splice variant); also called CR(SD)-GFP; CR(SD); source: N. benthamiana, transiently expressed, in living cells) TSCRRRTVKHLSTTSTSSTPLESRITSKVIVISIVSGILTGLVSALVLAFLVRSIVKFMKQTPILKGPVVFSPKITPKSLHAALSNGIQLLGSDLNGKYYKMVLDNGLVVAVKRLGSLEGVGDPESSSSKSVKRRLQKELELLAGLRHRNLMSLRAYVRESDEFSLVYDYMPNGSLEDVMNKVRTKEVELGWEIRLRVAVGIVKGLQYLHFSCETQILHYNLKPTNVMLDSEFEPRLADCGLAKIMPSSHTAVSCYSAPESSQSNRYTDKSDIFSFGMILGVLLTGRDPTHPFCEESASGGSLGQWLKHLQQSGEAREALDKTILGEEVEEDEMLMALRITIICLSDFPADRPSSDELVHMLTQLHSF : 12.2
CRN with S156A (phosphomute variant), tagged with GFP (natural protein, Arabidopsis thaliana, UniProt Q9LYU7 34-401, looked up, CRN, Arabidopsis thaliana, serine 156 replaced with alanine; S156 is S131 on gene model AT5G13290.1 (the shorter splice variant); also called CR(SA)-GFP; CR(SA); source: N. benthamiana, transiently expressed, in living cells) TSCRRRTVKHLSTTSTSSTPLESRITSKVIVISIVSGILTGLVSALVLAFLVRSIVKFMKQTPILKGPVVFSPKITPKSLHAALSNGIQLLGSDLNGKYYKMVLDNGLVVAVKRLGSLEGVGAPESSSSKSVKRRLQKELELLAGLRHRNLMSLRAYVRESDEFSLVYDYMPNGSLEDVMNKVRTKEVELGWEIRLRVAVGIVKGLQYLHFSCETQILHYNLKPTNVMLDSEFEPRLADCGLAKIMPSSHTAVSCYSAPESSQSNRYTDKSDIFSFGMILGVLLTGRDPTHPFCEESASGGSLGQWLKHLQQSGEAREALDKTILGEEVEEDEMLMALRITIICLSDFPADRPSSDELVHMLTQLHSF : 13.5
crn-3 variant of CRN (translational stop at Q296, kinase domain shortened by one third), tagged with GFP (domain or fragment, Arabidopsis thaliana, UniProt Q9LYU7 34-295, looked up, signal peptide in the construct; CRN, Arabidopsis thaliana, truncated by the point mutation at Q296 of the EMS-induced crn-3 allele, which causes a translational stop; also called crn-3-GFP; source: N. benthamiana, transiently expressed, in living cells) TSCRRRTVKHLSTTSTSSTPLESRITSKVIVISIVSGILTGLVSALVLAFLVRSIVKFMKQTPILKGPVVFSPKITPKSLHAALSNGIQLLGSDLNGKYYKMVLDNGLVVAVKRLGSLEGVGSPESSSSKSVKRRLQKELELLAGLRHRNLMSLRAYVRESDEFSLVYDYMPNGSLEDVMNKVRTKEVELGWEIRLRVAVGIVKGLQYLHFSCETQILHYNLKPTNVMLDSEFEPRLADCGLAKIMPSSHTAVSCYSAPESS : 18.3
crn-1 variant of CRN (G70E in the predicted TMD), tagged with GFP (natural protein, Arabidopsis thaliana, UniProt Q9LYU7 34-401, looked up, CRN, Arabidopsis thaliana, with the amino acid exchange G70E of the EMS-induced crn-1 allele in the predicted TMD; also called crn-1-GFP; source: N. benthamiana, transiently expressed, in living cells) TSCRRRTVKHLSTTSTSSTPLESRITSKVIVISIVSEILTGLVSALVLAFLVRSIVKFMKQTPILKGPVVFSPKITPKSLHAALSNGIQLLGSDLNGKYYKMVLDNGLVVAVKRLGSLEGVGSPESSSSKSVKRRLQKELELLAGLRHRNLMSLRAYVRESDEFSLVYDYMPNGSLEDVMNKVRTKEVELGWEIRLRVAVGIVKGLQYLHFSCETQILHYNLKPTNVMLDSEFEPRLADCGLAKIMPSSHTAVSCYSAPESSQSNRYTDKSDIFSFGMILGVLLTGRDPTHPFCEESASGGSLGQWLKHLQQSGEAREALDKTILGEEVEEDEMLMALRITIICLSDFPADRPSSDELVHMLTQLHSF : 5.2

Challenge: What D-d (%) (donor-dequenching, apparent FRET efficiency) value was documented for this binder, CORYNE (CRN), wild type, tagged with GFP (natural protein, Arabidopsis thaliana, UniProt Q9LYU7 34-401, looked up, CORYNE (CRN), Arabidopsis thaliana, wild type, from cDNA; Residue numbers (G70, S156, Q296) count on the longer splice variant, not on gene model AT5G13290.1, on which S156 is S131; also called CRN-GFP; source: N. benthamiana, transiently expressed from an inducible vector, in living cells) TSCRRRTVKHLSTTSTSSTPLESRITSKVIVISIVSGILTGLVSALVLAFLVRSIVKFMKQTPILKGPVVFSPKITPKSLHAALSNGIQLLGSDLNGKYYKMVLDNGLVVAVKRLGSLEGVGSPESSSSKSVKRRLQKELELLAGLRHRNLMSLRAYVRESDEFSLVYDYMPNGSLEDVMNKVRTKEVELGWEIRLRVAVGIVKGLQYLHFSCETQILHYNLKPTNVMLDSEFEPRLADCGLAKIMPSSHTAVSCYSAPESSQSNRYTDKSDIFSFGMILGVLLTGRDPTHPFCEESASGGSLGQWLKHLQQSGEAREALDKTILGEEVEEDEMLMALRITIICLSDFPADRPSSDELVHMLTQLHSF ?
Response given: 10.5
